# measurement-protocol: protein stability index of a GFP-peptide fusion (GPS, HEK-293T) (PSI 1-6); higher = more stable;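 further: 24-mer peptide tiles fused after GFP, lentivirally expressed, FACS-sorted into six equal bins by GFP/DsRed ratio, decoded by Illumina sequencing, PSI is the read-weighted mean bin number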
# condition-parameters: treatment: MLN4924 1 uM, 8 h; c terminus: a fixed tail appended
Hi all, reminder that labels come from protein stability index, split as low = under 3, middle = from 3 up to 4, high = 4 and over

State the class of the sequence shown: SEVFGPERMPPSGAARSFQEVTEP [PXN]
high

State the class of the sequence shown: EQLLARGYAVNVFDIQQGFDNPQV [NSDHL]
middle

State the class of the sequence shown: FSVVRRCVKLCTGHEYAAKIINTK [CAMK2B]
low

State the class of the sequence shown: SVSLDRCIKIWDVTSQATLLTITK [WDR88]
low

State the class of the sequence shown: SAVEGAPPARPRPRSPECRMIPGQ [IRX6]
high

State the class of the sequence shown: RCVLVFEQVRFLMKSYSFLREAVP [SOAT2]
low

State the class of the sequence shown: ISPGKNATGMEVGWYRPPFSRVVH [MOG]
low

State the class of the sequence shown: DSSHERTESQLTPCIRNVTSPTRQ [BTBD10]
high

State the class of the sequence shown: SQKVPLRRMCFVDPVRQCAECALV [ZFYVE21]
low

State the class of the sequence shown: VHVSESSDDDEEEEENIGCEEKAK [ACBD3]
high

State the class of the sequence shown: DSKIAFLMQLQDIQYLTENIWASQ [IQUB]
low

State the class of the sequence shown: MEKYEKLAKTGEGSYGVVFKCRNK [CDKL4]
middle

State the class of the sequence shown: SAENSVAKKEDKVPVKKQKTRTVF [NANOGP8]
high

State the class of the sequence shown: GDHERAIDFSPYLEPLGAPQAPAP [CEBPB]
high

State the class of the sequence shown: GGNHFRGTSDYDDVLSCEYYSPIL [KLHL13]
low

State the class of the sequence shown: RMEYVHSKNLIYRDVKPENFLIGR [CSNK1G1]
low

State the class of the sequence shown: CAKLDSCALGDHGCEHSCVSSEDS [MATN2]
high

State the class of the sequence shown: RAYLFNSVVNVGCGPAEERVLLTG [YPEL3]
low

State the class of the sequence shown: LKLKNKLLQADREHLPVKPDTMEK [DENND6A]
high

State the class of the sequence shown: RRQARREAEADKPRRLGRLKYQAP [NOP53]
high

State the class of the sequence shown: EGLRRRRGREAGPPQPMVPLAVEN [PBXIP1]
high

State the class of the sequence shown: QRLLGEDKFQWLAGLAPPSLFARA [ANKRD9]
low

State the class of the sequence shown: PRIEASKVLLCHGELRSKSGHKLY [NET1]
low

State the class of the sequence shown: DDDDNLPQLKKESELPFVPNYLAN [ANKRD40]
high

State the class of the sequence shown: CRYATQLQQIQGLIGGLEAQLSEL [KRT15]
low

State the class of the sequence shown: SDNLLVILKRKWWKYILLGLADVE [SLC35F2]
low

State the class of the sequence shown: TRHEGSFQVPVLCAVMNVVFITIL [CD69]
low

State the class of the sequence shown: VKMLGSPVDSVLFYAITTLHNLLL [CTNNB1]
low

State the class of the sequence shown: PTGPRRGRDELGGGRRPGTSPALL [CDKN1A]
high

State the class of the sequence shown: DLNGAQIKLREYEAALNSKDAALA [LMNB1]
middle

State the class of the sequence shown: RLSRRMASQHSYPLNRFSSVPLDP [CBY2]
middle

State the class of the sequence shown: SSALSQSGGGSTSAAGIEARSRAL [SPACA3]
high

State the class of the sequence shown: LKEMYDADLLEEEVIISWSEKASK [EIF5]
middle
